TESTED SYSTEM: β-catenin/BCL9 PPI (Homo sapiens, UniProt P35222)
Construct: Full-length β-catenin (residues 1-781) were cloned into a pET-28b vector; made in house; host or cells: E. coli BL21 DE3 (β-catenin); BCL9 peptide synthesized by InnoPep Inc
Sequence (P35222 whole entry, the tested form may be a part): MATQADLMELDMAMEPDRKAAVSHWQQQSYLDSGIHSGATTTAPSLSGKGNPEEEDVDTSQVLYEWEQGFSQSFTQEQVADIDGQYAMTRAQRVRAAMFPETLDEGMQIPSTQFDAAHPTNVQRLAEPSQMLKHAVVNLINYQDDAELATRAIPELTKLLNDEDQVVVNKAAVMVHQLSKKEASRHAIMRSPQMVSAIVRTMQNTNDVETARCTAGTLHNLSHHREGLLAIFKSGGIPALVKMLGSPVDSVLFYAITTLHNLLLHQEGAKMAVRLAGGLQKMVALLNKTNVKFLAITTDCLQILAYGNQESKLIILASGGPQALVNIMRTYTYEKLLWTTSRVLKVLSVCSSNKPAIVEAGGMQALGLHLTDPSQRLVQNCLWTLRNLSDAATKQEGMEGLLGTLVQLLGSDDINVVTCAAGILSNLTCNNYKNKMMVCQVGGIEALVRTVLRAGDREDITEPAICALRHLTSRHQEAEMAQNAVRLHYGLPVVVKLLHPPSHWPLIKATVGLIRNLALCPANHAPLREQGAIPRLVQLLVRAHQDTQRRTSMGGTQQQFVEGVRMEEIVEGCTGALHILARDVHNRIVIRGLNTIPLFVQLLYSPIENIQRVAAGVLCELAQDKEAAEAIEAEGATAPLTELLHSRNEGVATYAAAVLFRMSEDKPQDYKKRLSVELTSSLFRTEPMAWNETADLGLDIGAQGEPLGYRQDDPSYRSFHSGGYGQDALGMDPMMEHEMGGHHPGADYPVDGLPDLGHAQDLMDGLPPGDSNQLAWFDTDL
ASSAY NAME: AlphaScreen competitive inhibition assay of the β-catenin/BCL9 PPI
Format: binding
CONDITION INFO: Table 3, inhibitors 27-43; read-out: Ki
pKi: −log10 of the molar value.
Can you tell me pKi for the items I'm about to list?

>>> recorded_result("CC(C)(Oc1cccc(N2CCC[C@@H](C(=O)N(Cc3ccc(-c4ccsc4)cc3)C3CC3)C2)c1)C(=O)N1CCNCC1")
"> 5.30"
>>> recorded_result("CC(C)(Oc1cccc(N2CCC[C@@H](C(=O)N(Cc3ccc(C4CCCCC4)cc3)C3CC3)C2)c1)C(=O)N1CCNCC1")
"≥ 5.30"
>>> recorded_result("Cc1n[nH]c(C)c1-c1ccc(CN(C(=O)[C@@H]2CCCN(c3cccc(OC(C)(C)C(=O)N4CCNCC4)c3)C2)C2CC2)cc1")
"> 5.00"
>>> recorded_result("CC(C)(Oc1cccc(N2CCC[C@@H](C(=O)N(Cc3ccc(C(C)(C)C)cc3)C3CC3)C2)c1)C(=O)N1CCNCC1")
"≥ 4.52"
>>> recorded_result("CC(C)(Oc1cccc(N2CCC[C@@H](C(=O)N(Cc3ccc(-c4c[nH]c5ccccc45)cc3)C3CC3)C2)c1)C(=O)N1CCNCC1")
"> 5.30"

Give pKi for each of the items listed below.
1. CC(C)(Oc1cccc(N2CCC[C@@H](C(=O)N(Cc3ccc(-c4ccncc4)cc3)C3CC3)C2)c1)C(=O)N1CCNCC1
2. Cn1cc(-c2ccc(CN(C(=O)[C@@H]3CCCN(c4cccc(OC(C)(C)C(=O)N5CCNCC5)c4)C3)C3CC3)cc2)cn1

Result:
["> 4.05", "≥ 4.05"]

* * *

TESTED SYSTEM: β-catenin/BCL9 PPI (Homo sapiens, UniProt P35222)
Construct: Full-length β-catenin (residues 1-781) were cloned into a pET-28b vector; made in house; host or cells: E. coli BL21 DE3 (β-catenin); BCL9 peptide synthesized by InnoPep Inc
ASSAY NAME: AlphaScreen competitive inhibition assay of the β-catenin/BCL9 PPI
Type: binding
CONDITION INFO: Table 4, right half, inhibitors 49-53; read-out: Ki ± SD
pKi: −log10 of the molar value.
OUTCOME MEASURE: pKi

>>> recorded_result("CC(C)(Oc1cccc(N2CCC[C@@H](C(=O)N(Cc3ccc(-c4cn[nH]c4)cc3)C3CCCC3)C2)c1)C(=O)N1CCNCC1")
"> 5.00"
>>> recorded_result("CC(C)(Oc1cccc(N2CCC[C@@H](C(=O)N(Cc3ccc(-c4cn[nH]c4)cc3)C3CCCCC3)C2)c1)C(=O)N1CCNCC1")
"> 4.52"
>>> recorded_result("CCOCCN(Cc1ccc(-c2cn[nH]c2)cc1)C(=O)[C@@H]1CCCN(c2cccc(OC(C)(C)C(=O)N3CCNCC3)c2)C1.Cl")
"> 5.30"

Give pKi for each of the items listed below.
1. CC(C)(Oc1cccc(N2CCC[C@@H](C(=O)N(Cc3ccc(-c4cn[nH]c4)cc3)C3CCC3)C2)c1)C(=O)N1CCNCC1
2. CC(C)(Oc1cccc(N2CCC[C@@H](C(=O)N(CCN)Cc3ccc(-c4cn[nH]c4)cc3)C2)c1)C(=O)N1CCNCC1

Result:
["> 4.52", "> 4.05"]
